tested on: MCF7; assay: Growth inhibition of estrogen-dependent human MCF7 cells; type: functional
PROPERTY LABEL: GI50 (µM)

F/C(=C(/c1ccccc1)c1ccc(OCCN2CCCCC2)cc1)c1ccccc1	8.8
O=Cc1ccc(/C(=C(\F)c2ccccc2)c2ccc(OCCN3CCCCC3)cc2)cc1	5.6
Oc1ccc(/C(=C(\F)c2ccccc2)c2ccc(OCCN3CCCCC3)cc2)cc1	8.4
Oc1ccc(C(=C(F)c2cccc(C(F)(F)F)c2)c2ccccc2)cc1	71.7
F/C(=C(\c1ccccc1)c1ccc(OCCN2CCCCC2)cc1)c1ccccc1	6.5

P: OCc1ccc(/C(=C(\F)c2ccccc2)c2ccc(OCCN3CCCCC3)cc2)cc1
Q: Oc1ccc(C(=C(F)c2ccccc2)c2ccccc2)cc1 (mixture of isomers)
Q) GI50 comparison. Which is larger, P or Q ? Record your answer as the label of the chosen record.
A) Q

I: CN(C)CCOc1ccc(/C(=C(/F)c2ccccc2)c2ccccc2)cc1
II: Oc1ccc(/C(=C(\F)c2ccccc2)c2ccc(OCCN3CCCC3)cc2)cc1
Q) Sorting ascending by GI50, which comes first: I or II ? Record your answer as the label of the chosen record.
A) II

a: CN(C)CCOc1ccc(/C(=C(/F)c2ccccc2)c2ccc(O)cc2)cc1
b: F/C(=C(\c1ccccc1)c1ccc(OCCN2CCCC2)cc1)c1ccccc1
Q) Sorting ascending by GI50, which comes first: a or b ? Record your answer as the label of the chosen record.
A) a
